- Experiment Summary: growth inhibition of non-replicating M. tuberculosis (AID 488890);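 note: plate controls were DMSO cells for no effect and high antibiotic wells for full effect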
- Details: Mycobacterium tuberculosis non-replicating, at 25 µM, stronger effect = higher value
In all, about 320,000 compounds went through this assay and about 1,300 (0.41%) were called active. Not shown: some 3% with an inconclusive outcome. A selection follows. Results with a measured potency or affinity are listed apart.
Property Name: inhibition (%)
Numbers only, in %.

Record excerpt, results attached:
{"Molecule": "Nc1c(C(=O)c2ccccc2)sc(Nc2ccccc2)c1S(=O)(=O)c1ccccc1", "inhibition, %": 12.2}
{"Molecule": "NS(=O)(=O)c1ccc(CNC(=O)c2ccc3c(c2)OCO3)cc1", "inhibition, %": -8.29}
{"Molecule": "Cc1ccnc2nc(C(=O)Nc3nnc(-c4ccc(Cl)cc4)o3)nn12", "inhibition, %": 2.05}

Give inhibition for all molecules that follow.
1. O=C(CCN1C(=O)C2CC=CCC2C1=O)NC1CCCCC1 (stereo unspecified)
2. Nc1c(C(=O)Nc2cccc(F)c2)nnn1-c1cccc(C(F)(F)F)c1
3. Nc1nnc(-c2ccccc2F)s1
4. C=CCn1c(C)cc(C2=NNC(=NC(C)(C)C)SC2)c1C
5. O=C(NCc1nc2ccccc2[nH]1)c1ccc([N+](=O)[O-])cc1
6. O=C(CSc1ccccc1F)NCCN1C(=O)CSC1=O
7. CN(C(=O)COC(=O)CSc1cc(Cl)ccc1Cl)c1c(N)n(Cc2ccccc2)c(=O)[nH]c1=O

-1.44
-17.3
1
27
4.71
-0.52
7.95

Hey, quick one: what's inhibition for each of these?
1. COc1ccc(CNC(=O)CSc2ncn[nH]2)cc1OC
2. Cc1cc(Cl)ccc1NC(=O)COC(=O)c1nc2nccc(C)n2n1
3. Cc1ccc2c(C(=O)CN3CCN(C(=O)c4ccco4)CC3)c(C)[nH]c2c1
4. COc1ccccc1-c1coc2cc(OC(=O)/C=C/c3ccccc3)ccc2c1=O
5. COc1ccccc1-c1coc2cc(OC(=O)N3CCOCC3)ccc2c1=O
6. O=C(NCC1CCCN(C(=O)c2cccnc2)C1)c1ccc(-c2ccccc2)cc1 (stereo unspecified)
7. N#CC1=C(N)Oc2nc[nH]c(=O)c2C1c1cccs1 (stereo unspecified)
8. CCN(CC)S(=O)(=O)c1ccc(N2CC(C(=O)NCCc3ccc(Cl)cc3)CC2=O)cc1 (stereo unspecified)

[-3.59, -0.03, 14, 33.4, 17.2, -2.83, -24.7, 28.6]

Go through the items and report each one's inhibition.
1. CN(C)c1ccccc1C(=O)c1ccccc1N(C)C
2. O=[N+]([O-])c1ccc(-n2nnnc2-c2ccccc2)cc1
3. NC(=O)c1oc2ccccc2c1NC(=O)c1nc2ccccc2s1
4. Cc1cc(C(=O)COC(=O)c2cccnc2Cl)c(C)n1C
5. O=C(NCC(=O)N1CCN(c2ccccn2)CC1)c1ccc(Br)o1
6. O=C(O)CN(Cc1ccccc1)S(=O)(=O)c1ccc2c(c1)OCCO2
7. COc1ccc(CNC(=O)C/C(C)=N/NC(=O)COc2cccc(C)c2)cc1

1: 9.64; 2: -9.53; 3: 5.47; 4: 7.66; 5: -3.21; 6: -8.61; 7: -10.6

Consider the following items and state reported inhibition for each.
1. Cc1cccc(N(CC(=O)NC(C)(C)C)C(=O)CS(=O)CC(=O)Nc2ccc(F)cc2)c1 (stereo unspecified)
2. O=C(Nc1ccccc1N1CCOCC1)c1ccc([N+](=O)[O-])o1
3. CC1=C(C(=O)OC(C)C)C(c2coc3ccccc3c2=O)C2=C(CCCC2=O)N1 (stereo unspecified)
4. COc1ccc(C2C(C(=O)N3CCN(c4ccccc4)CC3)c3ccccc3C(=O)N2C)cc1 (stereo unspecified)
5. CCOc1ccccc1Oc1coc2cc(OCC(=O)O)ccc2c1=O

1. -8.34
2. 67.3
3. 21.4
4. 16.5
5. -6.12

Can you give me inhibition for all of these, one by one?
1. CCNC(=O)C(C)Sc1ccc(Cl)cc1 (stereo unspecified)
2. COC(=O)c1ccccc1NC(=O)COC(=O)/C=C/c1cccs1

25.6
18.2

State recorded inhibition for all listed molecules.
1. O=C(Cc1nc2ccccc2[nH]1)c1ccc([N+](=O)[O-])cc1
2. Cc1cc(C(=O)COc2ccc(F)cc2Br)c(C)n1C
3. C/C(=N\Nc1ccc(Cl)cc1)c1ccncc1
4. Cc1nc2ccccc2c(=O)n1/N=C/c1c(O)ccc2ccccc12
5. O=S(=O)(c1ccc2c(c1)OCCO2)N1CCN(S(=O)(=O)c2ccco2)CC1
6. Cc1ccccc1C(=O)Nc1nnc(-c2ccncc2)o1

1. 6.15
2. 11.3
3. 31.7
4. 40.6
5. 16.7
6. 30.5

Hi team, please reply with inhibition for each item in this list.
1. O=C(Nc1nncs1)c1cc2c(s1)CCC2
2. O=C(Nc1nnc(-c2ccc(Cl)cc2)o1)Nc1ccccc1Cl
3. CC[C@@]12C(=O)N(c3cccc(Br)c3)C(=O)N1[C@H](c1cccc(C)c1)[C@@H]1C(=O)N(Cc3ccccc3)C(=O)[C@@H]12
4. Cc1cc(C)n2nc(N)c(N=Nc3ccc(Cl)cc3)c2n1
5. CCC1C2Cn3c(nc4ccccc43)C1N(C)O2 (stereo unspecified)

2
-7.45
23.5
74.1
-9.29

Batch lookup, inhibition per entry.
1. Cc1ccc(C(=O)NC(NCC2CCCO2)C(Cl)(Cl)Cl)cc1 (stereo unspecified)
2. Clc1ccc(-c2nnc(C3CC3)o2)cc1
3. COc1ccc(-c2oc3ccccc3c(=O)c2OCC(=O)O)cc1

1. -8.87
2. 63
3. 6.78
